- Tested on: MDA-MB-231
- experimental details: Cytotoxicity against human MDA-MB-231 cells after 48 hrs by sulforhodamine B assay
- Type: functional
- assay setup: MDA-MB-231, 48 h
assay readout: GI50 (µM)
Field format: number, assumed µM, no unit text.

{"molecule": "COC1=C(Br)C[C@@]2(OC=C1Br)ON=C(C(=O)NCCCOc1c(Br)cc(C(O)CNC(=O)CCCCCCCCCCCC(C)C)cc1Br)[C@H]2O (stereo partly drawn)", "assay readout": "GI50", "recorded measurement": 21}

Tell me reported GI50 for COC1=C(Br)C[C@@]2(OC=C1Br)ON=C(C(=O)NCCCOc1c(Br)cc(CCN)cc1Br)[C@H]2O (relative stereo) , tested with MDA-MB-231. 4.3

Record: COC1=C(Br)C[C@]2(OC=C1Br)ON=C(C(=O)NCCCOc1c(Br)cc(CCN/C=C3/C(=O)CC(Cl)C3=O)cc1Br)[C@@H]2O (mixture of isomers) 1.2

Record: COC1=C(Br)C[C@@]2(OC=C1Br)ON=C(C(=O)NCCCOc1c(Br)cc(C(O)CNC=C3C(=O)C=CC3=O)cc1Br)[C@H]2O (stereo partly drawn) [19-HYDROXYPSAMMAPLYSINE E] 0.51

* * *

- Tested on: HCT-15
- experimental details: Cytotoxicity against human HCT15 cells after 48 hrs by sulforhodamine B assay
- Type: functional
- assay setup: HCT-15, 48 h
assay readout: GI50

{"compound": "COC1=C(Br)C[C@@]2(OC=C1Br)ON=C(C(=O)NCCCOc1c(Br)cc(C(O)CN)cc1Br)[C@H]2O (relative stereo)", "GI50": "4 µM"}
{"compound": "COC1=C(Br)C[C@@]2(OC=C1Br)ON=C(C(=O)NCCCOc1c(Br)cc(C(O)CNC(=O)CCCCCCCCCCCC(C)C)cc1Br)[C@H]2O (some centres undefined)", "GI50": "24 µM"}
{"compound": "N#CC(=O)NCCCOc1c(Br)cc(C(O)CN)cc1Br (centres undefined)", "GI50": "> 70 µM"}

Please find the next compound below.
Tell me reported GI50 for COC1=C(Br)C[C@@]2(OC=C1Br)ON=C(C(=O)NCCCOc1c(Br)cc(CCN)cc1Br)[C@H]2O (relative stereo) , tested with HCT-15. 3.9 µM
